Entry source: PubChem BioAssay AID2060603

System: 422866-222-R5-J1-PDC spheroid viability
Protocol details: Anticancer human tumor 422866-222-R5-J1-PDC patient-derived pancreatic adenocarcinoma cell line growth inhibition [CLK]
Condition parameters: second compound 1 µM; first compound 3.16 µM; stronger effect = lower value; spheroids with HUVEC and MSC
Recorded endpoint: viability, T/C (%)

compound="COC1C=CCC(C)C(C)S(=O)(=O)NC(=O)c2ccc3c(c2)N(CC2CCC21)CC1(CCCc2cc(Cl)ccc21)CO3 (stereo not given) + CN1CCN(c2cc(C(=O)Nc3cc4cc(-c5cnn(C)c5)ccc4cn3)ccn2)CC1" readout_units=% quantitative_result=38.7
compound="C#Cc1c(F)ccc2cc(O)cc(-c3ncc4c(N5CC6CCC(C5)N6)nc(OCC56CCCN5CC(F)C6)nc4c3F)c12 (stereo not given) + CN1CCN(c2cc(C(=O)Nc3cc4cc(-c5cnn(C)c5)ccc4cn3)ccn2)CC1" readout_units=% quantitative_result=24.3
compound="Nc1ccccc1NC(=O)c1ccc(CNC(=O)OCc2cccnc2)cc1 + CNC(=O)c1ccc(Nc2nc(OC3CCCC3)c3c(-c4ccc5nc(C)oc5c4)c[nH]c3n2)c(OC)c1" readout_units=% quantitative_result=58.5
compound="CC(=O)O[C@H]1C(=O)[C@@]2(C)[C@H]([C@H](OC(=O)c3ccccc3)[C@]3(O)C[C@H](OC(=O)[C@H](O)[C@@H](NC(=O)c4ccccc4)c4ccccc4)C(C)=C1C3(C)C)[C@]1(OC(C)=O)CO[C@@H]1C[C@@H]2O + CNC(=O)c1ccc(Nc2nc(OC3CCCC3)c3c(-c4ccc5nc(C)oc5c4)c[nH]c3n2)c(OC)c1" readout_units=% quantitative_result=66.5
compound="CCCS(=O)(=O)Nc1ccc(F)c(C(=O)c2c[nH]c3ncc(-c4ccc(Cl)cc4)cc23)c1F + CN1CCN(c2cc(C(=O)Nc3cc4cc(-c5cnn(C)c5)ccc4cn3)ccn2)CC1" readout_units=% quantitative_result=31.4

* * *

Tested on: 422866-222-R5-J1-PDC spheroid viability
Protocol details: Anticancer human tumor 422866-222-R5-J1-PDC cell line growth inhibition [CLK];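 further: spheroids exposed to agents for seven days before readout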
Condition parameters: curve of first compound; second compound 3.16 µM; spheroids with HUVEC and MSC
pIC50: −log10 of the molar value.
Recorded endpoint: pIC50

compound="CCCS(=O)(=O)Nc1ccc(F)c(C(=O)c2c[nH]c3ncc(-c4ccc(Cl)cc4)cc23)c1F + CNC(=O)c1ccc(Nc2nc(OC3CCCC3)c3c(-c4ccc5nc(C)oc5c4)c[nH]c3n2)c(OC)c1" recorded_endpoint=pIC50 result="< 5.00"
compound="O=c1[nH]cc(F)c(=O)[nH]1 + CN1CCN(c2cc(C(=O)Nc3cc4cc(-c5cnn(C)c5)ccc4cn3)ccn2)CC1" recorded_endpoint=pIC50 result="> 7.50"
compound="Cn1ncnc1[C@H]1c2n[nH]c(=O)c3cc(F)cc(c23)N[C@@H]1c1ccc(F)cc1 + CNC(=O)c1ccc(Nc2nc(OC3CCCC3)c3c(-c4ccc5nc(C)oc5c4)c[nH]c3n2)c(OC)c1" recorded_endpoint=pIC50 result="< 7.00"
compound="C=C(F)C(=O)N1CCN(c2nc(OCC3CCCN3C)nc3c2CCN(c2cccc4cccc(Cl)c24)C3)CC1CC#N (stereo not given) + CN1CCN(c2cc(C(=O)Nc3cc4cc(-c5cnn(C)c5)ccc4cn3)ccn2)CC1" recorded_endpoint=pIC50 result="> 7.50"
compound="C#Cc1c(F)ccc2cc(O)cc(-c3ncc4c(N5CC6CCC(C5)N6)nc(OCC56CCCN5CC(F)C6)nc4c3F)c12 (stereo not given) + CNC(=O)c1ccc(Nc2nc(OC3CCCC3)c3c(-c4ccc5nc(C)oc5c4)c[nH]c3n2)c(OC)c1" recorded_endpoint=pIC50 result=6.74
compound="O=C(c1cc(Cc2n[nH]c(=O)c3ccccc23)ccc1F)N1CCN(C(=O)C2CC2)CC1 + CNC(=O)c1ccc(Nc2nc(OC3CCCC3)c3c(-c4ccc5nc(C)oc5c4)c[nH]c3n2)c(OC)c1" recorded_endpoint=pIC50 result="< 5.00"
compound="CCc1c2c(nc3ccc(O)cc13)-c1cc3c(c(=O)n1C2)COC(=O)[C@]3(O)CC + CNC(=O)c1ccc(Nc2nc(OC3CCCC3)c3c(-c4ccc5nc(C)oc5c4)c[nH]c3n2)c(OC)c1" recorded_endpoint=pIC50 result="> 8.50"
compound="CCN1CCN(Cc2ccc(Nc3ncc(F)c(-c4cc(F)c5nc(C)n(C(C)C)c5c4)n3)nc2)CC1 + CN1CCN(c2cc(C(=O)Nc3cc4cc(-c5cnn(C)c5)ccc4cn3)ccn2)CC1" recorded_endpoint=pIC50 result="> 8.50"
compound="C=CC(=O)N1CCN(c2nc(=O)n(-c3c(C)ccnc3C(C)C)c3nc(-c4c(O)cccc4F)c(F)cc23)C(C)C1 (stereo not given) + CNC(=O)c1ccc(Nc2nc(OC3CCCC3)c3c(-c4ccc5nc(C)oc5c4)c[nH]c3n2)c(OC)c1" recorded_endpoint=pIC50 result="> 7.50"
compound="COC1C=CCC(C)C(C)S(=O)(=O)NC(=O)c2ccc3c(c2)N(CC2CCC21)CC1(CCCc2cc(Cl)ccc21)CO3 (stereo not given) + CNC(=O)c1ccc(Nc2nc(OC3CCCC3)c3c(-c4ccc5nc(C)oc5c4)c[nH]c3n2)c(OC)c1" recorded_endpoint=pIC50 result="< 5.00"
